src = ChEMBL document CHEMBL3885861

Species on record: Rattus norvegicus
Assay: Open TG-GATES - Regimen: Daily Repeat
Assay type: toxicity, organism-based, Sprague-Dawley
Design: regimen Daily Repeat, gender Male, age 6 weeks
Settings: in vivo, po, 300 mg/kg, […], tissue Plasma, route gavage, dose level Middle, time 14 day
compounds and their reported A/G
Answer field: number only, no words.

Request: Look at this compound and give its reported A/G. "O=C(OC[C@H]1O[C@@H](OC(=O)c2cc(O)c(O)c(OC(=O)c3cc(O)c(O)c(O)c3)c2)[C@H](OC(=O)c2cc(O)c(O)c(OC(=O)c3cc(O)c(O)c(O)c3)c2)[C@@H](OC(=O)c2cc(O)c(O)c(OC(=O)c3cc(O)c(O)c(O)c3)c2)[C@@H]1OC(=O)c1cc(O)c(O)c(OC(=O)c2cc(O)c(O)c(O)c2)c1)c1cc(O)c(O)c(OC(=O)c2cc(O)c(O)c(O)c2)c1"
Result: 1.7

Request: Name the recorded A/G for "Cc1nnc2n1-c1ccc(Cl)cc1C(c1ccccc1Cl)=NC2" .
Result: 0.8

Request: Reported A/G for "CN/C(=N/CCSCc1nc[nH]c1C)NC#N" : what is it?
Result: 1.4

Request: Which A/G reading was recorded for the compound "CNC(=C[N+](=O)[O-])NCCSCc1ccc(CN(C)C)o1" ?
Result: 1.4
